- Assay Info: RP, Phenomenex Kinetex C18, 150 × 2.1 mm, 1.7 µm, 30 °C, 0.3 mL/min, estimated dead time 1.1 min; A: water + 0.1% formic acid, pH 3; B: acetonitrile + 0.1% formic acid, pH 3; gradient (min/%B) 0/2 14/100 17/100 17.1/2 25/2
- Settings: stereoisomer not certain
Would you kindly list LC retention time for each of these compounds?
# value in min; strip the unit string

Form field: reported LC retention time of Nc1nc2c(ncn2C2OC3COP(=O)(O)OC3C2O)c(=O)[nH]1 (stereo not given)
2.64

Would you kindly repeat that for Nc1nc2c(ncn2C2CC(O)C(COP(=O)(O)O)O2)c(=O)[nH]1 (stereo not given) [DEOXYGUANOSINE-MONOPHOSPHATE] ?
1.67

Another compound: Cc1cn(C2CC(O)C(CO)O2)c(=O)[nH]c1=O (stereo not given)
3.21

Likewise for CC(=O)NC(Cc1ccccc1)C(=O)O (stereo not given) ?
5.54

Can you handle Nc1cc(C(=O)O)ccc1[O-] [3-AMINO-4-HYDROXYBENZOATE] next?
1.52
